biological target: human TAS2R46 (Homo sapiens); construct: RSS tag (first 45 amino acids of rat somatostatin receptor subtype 3, plus EcoRI site residues) (N); conditions: stable cell line; nonlinear regression of ΔF/F0; read-out: calculated EC50 value for TAS2R46
Sequence (P59540 with tags, fused parts or gaps): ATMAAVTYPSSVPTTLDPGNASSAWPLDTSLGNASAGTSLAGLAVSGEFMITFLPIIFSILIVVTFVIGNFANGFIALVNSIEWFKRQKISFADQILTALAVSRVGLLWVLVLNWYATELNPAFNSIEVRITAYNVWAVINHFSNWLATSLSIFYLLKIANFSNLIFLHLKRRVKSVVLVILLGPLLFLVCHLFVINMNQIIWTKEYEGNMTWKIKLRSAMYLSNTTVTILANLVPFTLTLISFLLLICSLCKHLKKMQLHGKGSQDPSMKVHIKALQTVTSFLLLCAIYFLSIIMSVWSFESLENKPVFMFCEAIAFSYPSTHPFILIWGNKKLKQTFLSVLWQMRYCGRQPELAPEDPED
endpoint: pEC50
Remember, pEC50 is on a log scale: it is -log10 of the molar concentration.

Q: # get_value(readout= pEC50, system= human TAS2R46 (Homo sapiens)) for `COc1ccc2c(c1)[C@]13CCCC[C@@H]1[C@H](C2)N(C)CC3`
Ans: 4.51
